biological target: b-Raf (V600E) (Homo sapiens (Human), UniProt P15056, V600E); settings: read-out: b-Raf IC-50; AlphaScreen, 60 min pre-incubation, 3 hours reaction
Sequence (P15056 whole entry V600E): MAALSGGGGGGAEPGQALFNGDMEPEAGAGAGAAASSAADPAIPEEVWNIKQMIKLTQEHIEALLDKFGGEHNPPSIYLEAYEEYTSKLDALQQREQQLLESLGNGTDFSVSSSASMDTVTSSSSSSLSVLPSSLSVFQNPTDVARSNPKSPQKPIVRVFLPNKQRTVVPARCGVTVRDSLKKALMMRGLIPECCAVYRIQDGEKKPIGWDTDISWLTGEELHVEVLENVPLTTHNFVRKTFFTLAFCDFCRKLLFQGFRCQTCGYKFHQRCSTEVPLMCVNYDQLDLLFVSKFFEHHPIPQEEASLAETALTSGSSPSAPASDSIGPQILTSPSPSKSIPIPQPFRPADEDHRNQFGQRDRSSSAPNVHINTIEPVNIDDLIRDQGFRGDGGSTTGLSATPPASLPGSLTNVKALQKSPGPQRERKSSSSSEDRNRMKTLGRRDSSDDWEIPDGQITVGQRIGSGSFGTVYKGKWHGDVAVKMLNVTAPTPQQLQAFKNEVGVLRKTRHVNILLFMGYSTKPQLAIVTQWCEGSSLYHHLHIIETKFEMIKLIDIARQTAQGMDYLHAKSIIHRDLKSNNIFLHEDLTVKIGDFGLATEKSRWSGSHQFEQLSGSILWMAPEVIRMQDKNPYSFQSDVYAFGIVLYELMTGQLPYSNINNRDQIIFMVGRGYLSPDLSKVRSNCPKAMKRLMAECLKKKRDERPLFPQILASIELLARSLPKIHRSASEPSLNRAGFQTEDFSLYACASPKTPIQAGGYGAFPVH
pIC50: −log10 of the molar value.
reported metric: pIC50

The following compounds have reported results that may help.
| compound | target system | pIC50 |
| --- | --- | --- |
| Cc1ccc(NC(=O)c2ccnc(C(C)(C)O)c2)cc1-c1cc(N2CCOCC2)c(=O)n(C)n1 [Example 638] | b-Raf (V600E) (Homo sapiens (Human), UniProt P15056, V600E) | 8.02 |
| CCNc1nc(-c2cc(NC(=O)c3cccc(-c4nnco4)c3)ccc2C)cc(N2CCOCC2)n1 [Example 699] | b-Raf (V600E) (Homo sapiens (Human), UniProt P15056, V600E) | 8.77 |
| Cc1ncc(NC(=O)c2cnnc(C(F)(F)F)c2)cc1-c1cc(N2CCOCC2)n2nccc2n1 [Example 801] | b-Raf (V600E) (Homo sapiens (Human), UniProt P15056, V600E) | 8.52 |
| Cc1ncc(NC(=O)c2ccnc(C(F)F)c2)cc1-c1cc(N2CCOCC2)n(C)c(=O)c1 [Example 508] | b-Raf (V600E) (Homo sapiens (Human), UniProt P15056, V600E) | 8.11 |
| CCNc1nc(-c2cc(NC(=O)c3cccc(C(F)(F)F)c3)cnc2C)cc(N2CCOCC2)n1 [Example 716] | b-Raf (V600E) (Homo sapiens (Human), UniProt P15056, V600E) | 8.89 |

1. Cc1ncc(NC(=O)c2cccc(C(F)(F)F)c2)cc1-c1cc(N2CCOCC2)nc(NCCO)n1 [Example 735]
2. Cc1ncc(NC(=O)c2ccnc(C(C)(C)C#N)c2)cc1-c1cc(N2CCOCC2)c(OC2CCOCC2)nn1 [Example 633]
3. Cc1ccc(NC(=O)c2ccnc(C(C)(C)F)c2)cc1-c1cc(N2CCOCC2)n(C)c(=O)c1 [Example 479]
4. Cc1ncc(NC(=O)c2ccnc(C(C)(F)F)c2)cc1-c1cc(N2CCOC[C@H]2C)n(C)c(=O)c1 [Example 524]
Output the entries ranked by pIC50 from maximum down to minimum. Returns: the labels listed in the requested order.
3, 1, 2, 4

====

target: b-Raf (V600E) (Homo sapiens (Human), UniProt P15056, V600E); conditions: read-out: b-Raf IC-50; AlphaScreen, 60 min pre-incubation, 3 hours reaction
reported metric: IC50 (nM)

The following compounds have reported results that may help.
| smiles structure | target system | recorded measurement |
| --- | --- | --- |
| CCNc1nc(-c2cc(C(=O)Nc3cccc(C(F)F)c3)ccc2C)cc(N2CCOCC2)n1 | b-Raf (V600E) (Homo sapiens (Human), UniProt P15056, V600E) | 0.8 |
| Cc1ccc(NC(=O)c2ccnc(C(C)(C)F)c2)cc1-c1cc(N2CCOC[C@H]2C)c(=O)n(C)n1 | b-Raf (V600E) (Homo sapiens (Human), UniProt P15056, V600E) | 6.3 |
| CCNc1nc(-c2cc(NC(=O)c3cc(C(F)(F)F)c(=O)n(CC)c3)cnc2C)cc(N2CCOCC2)n1 | b-Raf (V600E) (Homo sapiens (Human), UniProt P15056, V600E) | 23.2 |
| CCOc1ncc(-c2cc(NC(=O)c3cccc(C(F)(F)F)c3)ccc2C)nc1N1CCOCC1 | b-Raf (V600E) (Homo sapiens (Human), UniProt P15056, V600E) | 1.2 |
| Cc1ccc(NC(=O)c2ccnc(C(C)(C)C#N)c2)cc1-c1cc(N2C3CCC2COC3)c(=O)n(C)n1 | b-Raf (V600E) (Homo sapiens (Human), UniProt P15056, V600E) | 10 |

1. Cc1ccc(NC(=O)c2cccc(C(F)(F)F)c2)cc1-c1nc(N2CCOCC2)c2c(cnn2C)n1
2. Cc1ncc(NC(=O)c2cccc(C(F)(F)F)c2)cc1-c1cc(N2CCOCC2)c(OC2CCOCC2)nn1
Consider 1 and 2 . Which of these has its IC50 at a higher number? Answer by quoting the chosen item's label.
2
